Tested on: HT29 colon
procedure.details: NCI tumour cell line growth inhibition, 48 h; in the data active means GI50 below about 0.43 µM; inactive means the rest
# valid calls are active, inactive; nothing else

// below: answered compounds
N=c1c2c(-c3ccccc3)c(-c3ccccc3)n(Cc3ccccc3)c2ncn1C1CCC(O)CC1 (configuration not stated); active
COC(=O)c1c2c(c(C)[n+]([O-])c1C)C(=O)C=C(NCc1ccc(F)cc1)C2=O; active

We next turn to a different compound, shown below.
Which outcome was assigned to `S=c1[nH]c(=S)c2cc3ccccc3nc2[nH]1` in this test? inactive

---

Tested on: LOX IMVI melanoma
procedure.details: NCI tumour cell line growth inhibition, 48 h
The following compounds are shown together with reported TGI values.

C[N+](C)([O-])CCOc1cc2c(c3ccccc13)-c1ccccc1C2=O; > 47.4 µM
O=C(/C=C/c1ccccc1)Oc1ccc(C(=O)/C=C/c2ccccc2)cc1; 17.7 µM
COc1ccc(OCC(=O)O)c2c1CCCC2=O; > 100 µM
OC[C@H]1O[C@@H]2O[C@@](COCc3ccccc3)([C@H](OCc3ccccc3)[C@H]2O)[C@@H]1OCc1ccccc1; 32.2 µM

Could you share which TGI value was measured for `CN(C)C1CCN(C(=O)c2ccc(NC(=O)Nc3ccc(-c4nc(N5CCOCC5)c5cccn5n4)cc3)cc2)CC1` ? 1.19 µM

# iterate: `Cc1cc(/N=C/c2ccc(N(C)C)cc2)n(-c2ccccc2)n1` > 100 µM

# iterate: N#CC(C(=O)/C(=N\NC(N)=O)C(C#N)c1ccc(Cl)cc1)c1ccc(Cl)cc1 (stereo unspecified) > 100 µM

# iterate: CCn1c(O)c(/C=N/NC(=O)C(C)c2ccc(CC(C)C)cc2)sc1=S (stereo unspecified) > 36.1 µM

---

Test system: K-562 leukemia
procedure.details: NCI tumour cell line growth inhibition, 48 h; in the data active = GI50 below about 0.43 µM; inactive = the rest
# valid calls are YES for active, NO for inactive; nothing else

// below: answered compounds
COc1cc(C(=O)N2CCN(C(=O)c3cc(OC)c(OC)c(OC)c3)C2=S)cc(OC)c1OC; NO
NC1CCN(Cc2ccccc2)CC1; NO
CC(C)(/C=C(\C#N)C(=O)N1CCC[C@@H](n2nc(-c3ccc(Oc4ccccc4)cc3F)c3c(N)ncnc32)C1)N1CCN(C2COC2)CC1; NO

Which outcome was assigned to CC(=O)ON1CCCC(P(=O)(OCCSC(=O)C(C)(C)C)OCCSC(=O)C(C)(C)C)C1=O (stereo not given) in this test? NO

---

Tested on: PC-3 prostate
procedure.details: NCI tumour cell line growth inhibition, 48 h; in the data active means GI50 below about 0.43 µM; inactive means the rest
# valid calls are Y = active, N = inactive; nothing else

O=C(c1ccco1)c1c(C(F)(F)F)nc2ccc(Cl)cc2[n+]1[O-]; N
N#Cc1nn(-c2cc(=O)[nH]c3ccc(Cl)cc23)c(N)c1C#N; N
COc1cc(Cl)cc(-c2nn(-c3cccc(NC(=O)c4ccc(N5CCOCC5)c(C(F)(F)F)c4)c3)cc2-c2ccncc2)c1; N
COc1cc(N=Nc2ccc(O)c3ncccc23)c2ncccc2c1; N

Which outcome was assigned to `C[C@@H]1C[C@@H]([C@@H](CC2CC(=O)NC(=O)C2)OC(=O)CC(=O)c2ccccc2)C(=O)[C@@H](C)C1` in this test? N

# iterate: `CNCCOC(=O)/C=C1\CC[C@H]2[C@@H]([C@@H](O)C(=O)[C@@H]3[C@]2(C)CC[C@H](O)[C@]3(C)C(=O)OC)[C@H]1C` Y

# iterate: `CN(C)CC[C@H](CSc1ccccc1)Nc1ccc(S(=O)(=O)NC(=O)c2ccc(N3CCN(Cc4ccccc4-c4ccc(Cl)cc4)CC3)cc2)cc1[N+](=O)[O-]` N

# iterate: `COC(=O)c1ccc2c(c1)C(=O)c1c-2n(CCCN=[N+]=[N-])c(=O)c2cc(OC)c(OC)cc12` N

meta.source: PubChem BioAssay (NCI)
